Cited source: ChEMBL document CHEMBL3433997

test system: Hexose transporter 1 (Plasmodium falciparum) (UniProt O97467)
test protocol: ST_JUDE_LEISH: Cytotoxicity at 2uM final concentration against transgenic Leishmania Mexicana promastigotes LmPfHT that are glucose transport deficient and complemented with the Plasmodium falciparum hexose transporter. Activity is measured by DNA content using SYBR green in vitro
Format: functional
readout: inhibition (%)

>>> result("Cc1ccc2nc(C)cc(N/N=C/c3ccc([N+](=O)[O-])o3)c2c1")
12.8
>>> result("COc1ccc2nccc(NC(=O)C3(O)CCC(NCc4ccc5c(c4)NCCS5)CC3)c2n1 (centres undefined)")
22.5
>>> result("Cc1cc(C(=O)CN2C(=O)NC3(CCCc4ccccc43)C2=O)c(C)n1Cc1ccco1 (centres undefined)")
0.08
>>> result("CCCCc1cc(=O)oc2cc(C)cc(OCc3ccccc3F)c12")
1.33
>>> result("O=C(Nc1cccc(CN2CCCN(Cc3ccc4c(c3)OCO4)CC2)c1)c1cc2ccccc2s1")
-0.3
>>> result("COc1cc(C(=O)NCc2nn(CCN3CCC(N4CCCC4)CC3)cc2-c2ccc(Cl)c(Cl)c2)cc(OC)c1OC")
3.08
>>> result("FC(F)(F)c1cnc(Sc2nnc(-c3ccco3)o2)c(Cl)c1")
12.9
>>> result("O=S(=O)(Nc1cccc(CCN2CCC(N3CCCCC3)CC2)c1)c1ccc2c(c1)OCCO2")
4.23
>>> result("O=C(Nc1ccc(Br)cc1)c1cc(Br)ccc1NS(=O)(=O)c1cc(C(F)(F)F)cc(C(F)(F)F)c1")
0.04
>>> result("CCOc1cc(C(=O)Nc2ccccc2N2CCN(S(C)(=O)=O)CC2)cc(OCC)c1OCC")
3.96
>>> result("Cc1cc(=O)c(-c2ccc(Oc3ccc(Cl)cc3Cl)cc2)c(C)[nH]1")
3.32
>>> result("CCNc1cc(C(=O)N[C@@H](Cc2ccccc2)[C@H](O)CNC(C)(C)CCCC(C)C)cc(N2CCCCS2(=O)=O)c1")
0.88
>>> result("COc1ccc(NC(=O)C2c3ccccc3C(=O)N(C3CCCC3)C2c2cccs2)c(OC)c1 (centres undefined)")
-0.63
>>> result("COC(=O)c1cccc(CNCc2ccc(-c3ccc(-c4nc5cc(C(F)(F)F)ccc5[nH]4)cc3)cc2)c1")
1.94
>>> result("O=C(NCC1COc2ccccc2O1)c1cnc2c(c1)nc(-c1c[nH]c(-c3ccccc3)n1)n2CCSCc1c(F)cccc1Cl (centres undefined)")
3.79
>>> result("O=C(/C=C/c1ccc(Cl)c(Cl)c1)NCCCCCN1CCCN(C(=O)Nc2ccc(Cl)c(C(F)(F)F)c2)CC1")
-0.33
>>> result("O=C(Cn1c(CCc2cccc(F)c2F)nc(=O)c2cccnc21)N(Cc1ccc(-c2ccc(C(F)(F)F)cc2)cc1)C1CCN(C2CCSCC2)CC1")
4.36
>>> result("Cc1[nH]c(C)c(-c2ccc(OCc3ccc(F)cc3)cc2)c(=O)c1Br")
-1.87
>>> result("CC(=O)Nc1cccc(C(=O)Nc2cccc(-c3ccc(-c4nc5cc(F)ccc5[nH]4)s3)c2)c1")
3.63
>>> result("CCn1c(Sc2ccc(C#N)c([N+](=O)[O-])c2)nnc1-c1ccc(OC)cc1")
4.95
>>> result("CCOc1ccc2[nH]c(C)cc(=NN=Cc3ccccc3F)c2c1")
4.47
>>> result("CC(=O)N(C)/N=C/[C@H](CCc1ccccc1)NC(=O)[C@H](CC(C)C)NC(=O)c1cccc(OCCN2CCOCC2)c1")
9.59
>>> result("Nc1nc2c(ncn2COC2COP(=O)(O)OC2)c(=O)[nH]1 (centres undefined)")
12
>>> result("Cc1cccc2nc(-c3ccc(-c4cccc(NC(=O)NCc5ccc(F)cc5)c4)cc3)[nH]c12")
4.77

----------
Reported inhibition by item:
test system: Glucose transporter (Leishmania mexicana) (UniProt O61059)
test protocol: ST_JUDE_LEISH: Cytotoxicity at 2uM final concentration against transgenic Leishmania Mexicana promastigotes LmGT2 that are glucose transport deficient and complemented with the L. Mexicana glucose transporter 2. Activity is measured by DNA content using SYBR green in vitro
Type: functional
readout: inhibition (%)

>>> result("COc1ccc(-c2cnn3ccc(Nc4cc(OC)c(OC)c(OC)c4)nc23)cc1OC")
9.46
>>> result("COc1cc(OC)c(OC)cc1CN1CCC2(CC1)CN(Cc1ccc(Cl)c(Cl)c1)C(=O)O2")
8.16
>>> result("O=C(/C=C/c1ccc(Cl)c(Cl)c1)NCCCCN1CCC(c2c[nH]c3ccccc23)CC1")
-0.01
>>> result("Cc1ccc(F)c(C(=O)Nc2cccc(-c3nn4ccccc4c3-c3ccnc(Nc4cccc(F)c4)n3)c2)c1F")
6.93
>>> result("O=C(NCC1CCN(Cc2ccc(F)cc2)C1)c1cc(-c2cccc(C(F)(F)F)c2)cs1 (configuration not stated)")
-6.61
>>> result("CN1CCCN(c2ccnc3cc4c(cc23)N(C(=O)c2ccc(Cl)c(Cl)c2)CC4)CC1")
1.54
>>> result("Cc1cc(O)c(CN2CCN(Cc3cccs3)CC2)cc1C(C)C")
2.94
>>> result("Cc1nc(C)c(-c2ccc(S(=O)(=O)c3ccc(Cl)cc3)cc2)c(O)c1Cl")
7.16
>>> result("CS(=O)(=O)c1ccc(CCNCc2ccc(-c3ccc(CN(C(=O)c4ccco4)C4CCN(Cc5ccccc5)CC4)cc3)nc2)cc1")
4.41
>>> result("Cc1cccc(Nc2nc(N)c3ccccc3n2)c1")
5.71
>>> result("O=C(Nc1cccc(-c2ccc(-c3nc4cc(F)ccc4[nH]3)s2)c1)c1cccnc1")
3.13
>>> result("CCOc1cc(Cl)c(C(C)NC(=O)c2ccccc2)cc1OCC (configuration not stated)")
3.01

----------
test system: Solute carrier family 2, facilitated glucose transporter member 1 (Homo sapiens) (UniProt P11166)
Sequence (P11166 whole entry): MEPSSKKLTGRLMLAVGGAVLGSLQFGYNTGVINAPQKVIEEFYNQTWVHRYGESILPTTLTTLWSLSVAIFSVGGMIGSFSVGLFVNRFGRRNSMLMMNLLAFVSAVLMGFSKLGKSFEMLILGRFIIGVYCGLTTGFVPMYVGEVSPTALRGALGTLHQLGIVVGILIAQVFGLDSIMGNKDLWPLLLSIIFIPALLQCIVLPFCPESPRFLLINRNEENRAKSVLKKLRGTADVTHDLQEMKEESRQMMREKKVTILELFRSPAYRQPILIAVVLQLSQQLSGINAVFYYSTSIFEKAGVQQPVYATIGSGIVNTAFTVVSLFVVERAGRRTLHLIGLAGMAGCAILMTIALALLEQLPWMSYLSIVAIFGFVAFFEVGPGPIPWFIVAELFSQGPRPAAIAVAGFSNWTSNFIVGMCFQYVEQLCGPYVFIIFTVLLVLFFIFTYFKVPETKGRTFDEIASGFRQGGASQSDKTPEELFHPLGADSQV
test protocol: ST_JUDE_LEISH: Cytotoxicity at 2uM final concentration against transgenic Leishmania Mexicana promastigotes LmGLUT1 that are glucose transport deficient and complemented with the human glucose transporter GLUT1. Activity is measured by DNA content using SYBR green in vitro
Format: functional
Overview of reported inhibition across a group of molecules:
readout: inhibition (%)

>>> result("Nc1ccc2nc(C=Cc3ccccc3)[nH]c2c1")
1.45
>>> result("CCOC(=O)C1=C(C)NC2=C(C(=O)CC(C)(C)C2)C1c1ccc(Cl)cc1 (stereo not given)")
-1.57
>>> result("Cc1cccc2nc(-c3ccc(-c4ccc(CNCc5ccc(CN)cc5)cc4)s3)[nH]c12")
5.43
>>> result("Cc1cc(N)ncc1-c1ccc(NC(=O)Nc2cc(C(F)(F)F)ccc2F)cc1")
2.41
>>> result("FC(F)c1nc2ccccc2n1-c1nc(N2CCOCC2)nc(N2CCOCC2)n1")
2.11
>>> result("Cc1nc(-c2nc(N3CCOCC3)ncc2-c2ccsc2)sc1C")
-1.47
>>> result("Cc1ccccc1OCCCc1c(C)nc(N)nc1N")
3.68
>>> result("O=S(=O)(NC1CCN(c2ccnc3cc(Cl)ccc23)C1)c1cccc(F)c1 (stereo not given)")
10.1
>>> result("COc1ccc(-c2cnc3ccc(NCc4ccc(S(N)(=O)=O)cc4)nn23)cc1")
3.11
>>> result("c1ccc(CN2CCC(NCc3ccc(-c4ccc(CNC5CCCC5)cc4)cc3)CC2)cc1")
1.73

----------
test system: Glucose transporter (Leishmania mexicana)
test protocol: ST_JUDE_LEISH: Cytotoxicity at 2uM final concentration against transgenic Leishmania Mexicana promastigotes LmGT2 that are glucose transport deficient and complemented with the L. Mexicana glucose transporter 2. Activity is measured by DNA content using SYBR green in vitro
Type: functional
Consider the following compounds and their measured inhibition readings.
readout: inhibition

>>> result("Clc1ccc(-c2ccc(C=NNc3nc(=Nc4ccccc4)[nH]c(=Nc4ccccc4)[nH]3)o2)cc1Cl")
"7.88%"
>>> result("CCOC(=O)c1cc(C(=O)NCCCCN2CCC(c3ccc4c(c3OC)CCCC4)CC2)ccc1-c1ccc(C(F)(F)F)cc1")
"1.36%"
>>> result("Cc1cc(C)cc(OCC(O)CN(CCN2CCOCC2)C(=O)Nc2ccc(Br)cc2)c1 (configuration not stated)")
"13.4%"
>>> result("CCNc1cc(C)nc(Nc2ccc(C)cc2)n1")
"5.86%"
>>> result("CCCc1ccc(C(=O)N2C(c3nccs3)C(C(N)=O)CC2(CC(C)C)C(=O)O)cc1 (configuration not stated)")
"0.37%"
>>> result("CN(C)c1ccc(NC(=O)Nc2ccnc3ccccc23)cc1Br")
"6.85%"
>>> result("O=C(NCCN1CCOCC1)c1ccc(N2CCC(Oc3ccc4ccccc4c3)CC2)nc1")
"6.12%"

----------
test system: Solute carrier family 2, facilitated glucose transporter member 1 (Homo sapiens)
test protocol: ST_JUDE_LEISH: Cytotoxicity at 2uM final concentration against transgenic Leishmania Mexicana promastigotes LmGLUT1 that are glucose transport deficient and complemented with the human glucose transporter GLUT1. Activity is measured by DNA content using SYBR green in vitro
Type: functional
readout: inhibition (%)

>>> result("Cc1ccccc1C1CCN(C2CCC(NC(=O)/C=C/c3ccc(C(F)(F)F)cc3F)CC2)CC1 (stereo unspecified)")
1.85
>>> result("OCCN1CCN(C(=S)Nc2ccccc2)CC1")
4.19
>>> result("CCC1CCCCN1S(=O)(=O)c1ccc(NC(=O)c2cc(C)on2)cc1 (stereo unspecified)")
2.22
>>> result("COc1ccc2cc(C(C)NC3CCN(c4cccc(NC(=O)c5ccncc5)c4)CC3)ccc2c1 (stereo unspecified)")
0.03
>>> result("O=C(Nc1cccc(-c2cccc(-c3nc4cc(C(F)(F)F)ccc4[nH]3)c2)c1)c1ccc(=O)[nH]n1")
10.7
>>> result("Nc1c2c(nc3ccc(NC(=O)CCCCCCc4ccccc4)cc13)CCCC2")
-2.4
>>> result("Cc1cccc2nc(-c3ccc(-c4ccc(CN5CCCCC5)cc4)s3)[nH]c12")
4.61
>>> result("COc1cccc2c(NN=Cc3cccc(Cl)c3)ccnc12")
0.32
>>> result("CC(C)C[C@H](NC(=O)c1cc2ccccc2s1)C(=O)N[C@H]1CCN(Cc2ccc(OCCN3CCNCC3)c3ccccc23)C1")
-0.59
>>> result("CN(Cc1cccc(F)c1)C1CCN(c2cc(NC(=O)c3ccc(F)cc3)ccn2)CC1")
6.99
>>> result("O=C(/C=C/c1ccc(Cl)c(Cl)c1)N1CCC(CN2CCC(c3c[nH]c4ncccc34)CC2)CC1")
4.3
